Values compiled from patent US4753953A.

- Test system: Staphylococcus aureus 209 P
- Assay Overview: MIC, in vitro antibacterial activity (standard strains)
- Format: cell-based
- Condition Label: Staphylococcus aureus, 209P; 10^6 cells/ml; Gram +; read-out: MIC
The following compounds are shown together with reported MIC values.

[
  {
    "Compound": "CNCC1CN(c2c(F)cc3c(=O)c(C(=O)O)cn(C4CC4)c3c2Cl)CC1C (stereo not drawn)",
    "MIC (µg/mL)": 0.05
  },
  {
    "Compound": "C[C@H]1CN(c2c(F)cc3c(=O)c(C(=O)O)cn(C4CC4)c3c2Cl)C[C@H]1N (relative stereo)",
    "MIC (µg/mL)": 0.05
  },
  {
    "Compound": "C[C@H]1CN(c2c(F)cc3c(=O)c(C(=O)O)cn(CCF)c3c2Cl)C[C@H]1N (relative stereo)",
    "MIC (µg/mL)": 0.2
  },
  {
    "Compound": "CCn1cc(C(=O)O)c(=O)c2cc(F)c(N3C[C@@H](N)[C@@H](C)C3)c(Cl)c21 (relative stereo)",
    "MIC (µg/mL)": 0.1
  },
  {
    "Compound": "C[C@@H]1CN(c2c(F)cc3c(=O)c(C(=O)O)cn(C4CC4)c3c2F)C[C@H]1N (relative stereo)",
    "MIC (µg/mL)": 0.05
  },
  {
    "Compound": "C[C@H]1CN(c2cc3c(cc2F)c(=O)c(C(=O)O)cn3C2CC2)C[C@H]1N (relative stereo)",
    "MIC (µg/mL)": 0.05
  },
  {
    "Compound": "CCNCC1CN(c2c(F)cc3c(=O)c(C(=O)O)cn(C4CC4)c3c2F)CC1C (stereo not drawn)",
    "MIC (µg/mL)": 0.05
  },
  {
    "Compound": "C[C@H]1CN(c2c(F)cc3c(=O)c(C(=O)O)cn(C4CC4)c3c2Br)C[C@H]1N (relative stereo)",
    "MIC (µg/mL)": 0.025
  },
  {
    "Compound": "CCNCC1CN(c2c(F)cc3c(=O)c(C(=O)O)cn(C4CC4)c3c2Cl)CC1C (stereo not drawn)",
    "MIC (µg/mL)": 0.0125
  },
  {
    "Compound": "C[C@@H]1CN(c2c(F)cc3c(=O)c(C(=O)O)cn(C4CC4)c3c2Cl)C[C@H]1N (relative stereo)",
    "MIC (µg/mL)": 0.025
  },
  {
    "Compound": "CC1CN(c2c(F)cc3c(=O)c(C(=O)O)cn(C4CC4)c3c2Cl)CC1N (stereo not drawn)",
    "MIC (µg/mL)": 0.025
  },
  {
    "Compound": "C[C@H]1CN(c2c(F)cc3c(=O)c(C(=O)O)cn4c3c2OC[C@@H]4C)C[C@H]1N.Cl (mixture of isomers)",
    "MIC (µg/mL)": 0.2
  },
  {
    "Compound": "CC1CN(c2c(F)cc3c(=O)c(C(=O)O)cn(C4CC4)c3c2Cl)CC1CN (stereo not drawn)",
    "MIC (µg/mL)": 0.0125
  },
  {
    "Compound": "CCn1cc(C(=O)O)c(=O)c2cc(F)c(N3CCNCC3)cc21 [NFLX, norfloxacin, reference compound]",
    "MIC (µg/mL)": 0.78
  },
  {
    "Compound": "C[C@@H]1CN(c2c(F)cc3c(=O)c(C(=O)O)cn(C4CC4)c3c2Br)C[C@H]1N (relative stereo)",
    "MIC (µg/mL)": 0.025
  }
]
